Answer each item with its documented MIC.
Tested on: A. baumannii ATCC 19606
Assay: Broth microdilution MIC, A. baumannii ATCC 19606
Type: cell-based
Details: Acinetobacter baumannii, ATCC19606; A. baumannii ATCC 19606, broth microdilution; read-out: MIC A. baumannii ATCC 19606

// fetch MIC given entry NCCN1CCN(C(=O)N[C@@H](C(=O)N[C@H]2Cc3ccc(F)c(C(=O)O)c3OB2O)c2ncc(O)cc2F)C(=O)C1=O [Example 230]
> 128 µg/mL

Please look at this compound and report its MIC: CCN1CCN(C(=O)NC(C(=O)N[C@H]2Cc3cccc(C(=O)O)c3OB2O)c2ccc(S(N)(=O)=O)cc2F)C(=O)C1=O (some centres unmarked) [Example 203]
> 128 µg/mL

Supply recorded MIC for NCCN1CCN(C(=O)N[C@@H](C(=O)N[C@H]2Cc3cccc(C(=O)O)c3OB2O)c2ccc(O)c(O)c2Cl)C(=O)C1=O [Example 220] here.
< 0.25 µg/mL

Give the measured MIC for O=C(O)c1cccc2c1OB(O)[C@@H](NC(=O)C(NC(=O)N1C[C@H]3CCCN3C(=O)C1=O)c1ccc(O)c(O)c1Cl)C2 (some centres unmarked) [Example 232]
> 128 µg/mL

# return recorded MIC for entry CCN1CCN(C(=O)NC(C(=O)N[C@H]2Cc3cccc(C(=O)O)c3OB2O)c2ccc(O)c([N+](=O)[O-])c2)C(=O)C1=O (some centres unmarked) [Example 247]
> 128 µg/mL

Give a short answer stating reported MIC for CCN1C[C@@H](C)N(C(=O)NC(C(=O)N[C@H]2Cc3cccc(C(=O)O)c3OB2O)c2ncc(O)cc2F)C(=O)C1=O (some centres unmarked) [Example 191] .
> 128 µg/mL

Give reported MIC value for CCN1C[C@H](C)N(C(=O)NC(C(=O)N[C@H]2Cc3ccc(F)c(C(=O)O)c3OB2O)c2ncc(O)cc2F)C(=O)C1=O (some centres unmarked) [Example 208]
> 128 µg/mL

Please report the measured MIC for CCNC(=O)NCCN1CCN(C(=O)NC(C(=O)N[C@H]2Cc3cccc(C(=O)O)c3OB2O)c2ccc(O)c(O)c2Cl)C(=O)C1=O (some centres unmarked) [Example 235]
0.5 to 1 µg/mL
